Catalogue of half-life at 1 µM values
- experimentSummary: Liver S9 stability (human liver S9)
- Assay type: in vitro ADME
- runConditions: human liver S9, 37° C.

Example entries begin here.
{"molecule": "C#C[C@]1(COC(=O)OCCC23CC4CC(CC(C4)C2)C3)O[C@@H](n2cnc3c(N)nc(F)nc32)C[C@@H]1O [Compound 7]", "half-life at 1 µM": "< 50 min"}
{"molecule": "C#C[C@]1(COC(=O)CCCC23CC4CC(CC(C4)C2)C3)O[C@@H](n2cnc3c(N)nc(F)nc32)C[C@@H]1O [Compound 15]", "half-life at 1 µM": "< 50 min"}

Turning to the following molecule.
*Q* State its half-life at 1 µM for this molecule: C#C[C@]1(COC(=O)OCCC23CC4CC(CC(C4)C2)C3)O[C@@H](n2cnc3c(N)nc(F)nc32)C[C@@H]1OC(=O)OCC [Compound 18]
*A* < 50 min
